Provide the reported Percent change in plasma triglycerides versus control of each item.
Organism: Rattus norvegicus
measurement.description: Activity to induce the elevation of triglycerides of male Wistar rats
Type: functional
Design: concentration or dose not given beside the values

What Percent change in plasma triglycerides versus control value was documented for this molecule, `CC(C)OP(=O)(OC(C)C)C(Cc1ccc(Cl)cc1)P(=O)(OC(C)C)OC(C)C` ?
19%

Param item = COc1ccc(C(OP(=O)(OC)OC)P(=O)(OC)OC)cc1 (centres undefined) ; retrieve measured Percent change in plasma triglycerides versus control.
41%

Quick one: Percent change in plasma triglycerides versus control of COP(=O)(OC)OC(C(C)(C)c1ccccc1)P(=O)(OC)OC (centres undefined) ?
36%

What does the record list as Percent change in plasma triglycerides versus control for `COP(=O)(OC)C(O)(c1ccc(Cl)cc1)P(=O)(OC)OC` ?
15%

What does the data say about its Percent change in plasma triglycerides versus control? Entry: COP(=O)(OC)OC(c1ccccc1)P(=O)(OC)OC (centres undefined)
32%

Please report the recorded Percent change in plasma triglycerides versus control for COP(=O)(OC)OC(C(C)(C)c1ccc(Cl)cc1)P(=O)(OC)OC (centres undefined) .
-7%

For the molecule COP(=O)(OC)OC(c1ccc(F)cc1)P(=O)(OC)OC (centres undefined) , what Percent change in plasma triglycerides versus control is on record?
-9%

Suppose we examine the molecule COP(=O)(O)C(CCCc1ccccc1)P(=O)(O)OC (centres undefined) ; what Percent change in plasma triglycerides versus control value has been reported?
9%

I am curious: what Percent change in plasma triglycerides versus control value has been reported for `COP(=O)(OC)C(O)(C(C)(C)Oc1ccc(Cl)cc1)P(=O)(OC)OC` ?
-33%

Record request: Percent change in plasma triglycerides versus control value, item `COP(=O)(OC)C(O)(c1ccccc1)P(=O)(OC)OC`
4%

Can you look up the measured Percent change in plasma triglycerides versus control of `COP(=O)(OC)C(O)(C(C)(C)C)P(=O)(OC)OC` for me?
24%

Entry `O=P(O)(O)C(CCCc1ccccc1)P(=O)(O)O` : reported Percent change in plasma triglycerides versus control = ?
11%

Name the recorded Percent change in plasma triglycerides versus control for COP(=O)(OC)OC(c1ccc(C)cc1)P(=O)(OC)OC (centres undefined) .
-33%

Endpoint output: Percent change in plasma triglycerides versus control of COP(=O)(OC)OC(C(C)C)P(=O)(OC)OC (centres undefined) . Value?
-26%

For the molecule shown here, `COP(=O)(OC)C(Cc1ccc(Cl)cc1)P(=O)(OC)OC` , give the reported Percent change in plasma triglycerides versus control.
62%

Recorded Percent change in plasma triglycerides versus control for CCOP(=O)(OCC)OC(c1ccc(Cl)cc1)P(=O)(OCC)OCC (centres undefined) , please?
8%

Look up Percent change in plasma triglycerides versus control for this molecule: `COP(=O)(OC)C(O)(c1ccc(F)cc1)P(=O)(OC)OC`
27%

State the recorded Percent change in plasma triglycerides versus control for this entry: `O=P(O)(O)C(CCCOc1ccccc1)P(=O)(O)O`
-7%

Entry COP(=O)(OC)OC(c1ccc(Cl)cc1Cl)P(=O)(OC)OC (centres undefined) : reported Percent change in plasma triglycerides versus control = ?
13%

# get_value(readout='Percent change in plasma triglycerides versus control', item= `O=P(O)(O)C(Cc1ccc(Cl)cc1)P(=O)(O)O` )
-146%

Request the reported Percent change in plasma triglycerides versus control associated with `COP(=O)(OC)C(O)(c1ccc(-c2ccccc2)cc1)P(=O)(OC)OC`
5%

Fill blank: measured Percent change in plasma triglycerides versus control of the molecule `O=P(O)(O)C(CCc1ccccc1)P(=O)(O)O` is ____.
-17%

Fill in the blank: the reported Percent change in plasma triglycerides versus control of COP(=O)(OC)OC(c1ccc(C(=O)c2ccc(Cl)cc2)cc1)P(=O)(OC)OC (centres undefined) is ____.
0%

Given `CCOP(=O)(OCC)C(CCc1ccccc1)P(=O)(OCC)OCC` , state its recorded Percent change in plasma triglycerides versus control.
11%
